Values compiled from PubChem BioAssay (EPA / NIEHS).

target: bovine Estrogen Receptor (ER), ESR1 (gene 407238) (UniProt P49884); assay: NVS_NR_bER: NovaScreen (NVS) Nuclear Receptor Binding Assay for bovine Estrogen Receptor (ER) (AID 2283345);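 also: actives lower the bound radioligand count which means they displace the ER ligand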
Sequence (P49884 whole entry, looked up): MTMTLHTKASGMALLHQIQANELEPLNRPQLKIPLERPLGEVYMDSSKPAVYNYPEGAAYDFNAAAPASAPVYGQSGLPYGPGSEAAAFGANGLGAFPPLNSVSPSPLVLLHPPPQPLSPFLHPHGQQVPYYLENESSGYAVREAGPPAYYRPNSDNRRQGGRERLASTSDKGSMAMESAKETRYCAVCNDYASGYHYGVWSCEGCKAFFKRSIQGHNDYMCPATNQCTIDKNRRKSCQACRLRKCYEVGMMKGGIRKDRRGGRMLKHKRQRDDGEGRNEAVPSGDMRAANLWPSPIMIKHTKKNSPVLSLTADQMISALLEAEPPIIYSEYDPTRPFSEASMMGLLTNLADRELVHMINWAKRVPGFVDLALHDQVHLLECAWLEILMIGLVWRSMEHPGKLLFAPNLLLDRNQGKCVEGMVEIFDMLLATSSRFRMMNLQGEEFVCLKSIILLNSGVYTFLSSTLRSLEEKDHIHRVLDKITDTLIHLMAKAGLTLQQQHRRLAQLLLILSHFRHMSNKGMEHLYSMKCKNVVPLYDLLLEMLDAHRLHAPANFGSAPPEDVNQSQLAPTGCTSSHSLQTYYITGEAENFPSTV
Results filed as inconclusive are left out. Activity calls are given as the source filed them. The calls were made as follows: active = hit-call score of the fitted dose curve at least 0.9, where 1 is the maximum; inconclusive = response in the unintended direction; inactive = score below 0.9.
Your reply should match one of these outcome classes. 1 (yes) (active), 0 (no) (inactive)

See these solved cases before continuing.
COC(=O)c1ccc(O)cc1
0 (no)
COc1ccc2c(c1)c(CC(=O)O)c(C)n2C(=O)c1ccc(Cl)cc1
0 (no)
CCCc1cc(=O)[nH]c(=S)[nH]1
1 (yes)
Oc1ccc2ccccc2c1N=Nc1ccccc1
0 (no)
COc1cc(C=O)ccc1O
0 (no)
CN1CCN(Cc2cc(-c3ccc4[nH]c(=O)oc4c3)co2)[C@@H](c2ccc(F)cc2)C1
0 (no)

Exercise: Record lookup: outcome of this test for `O=C(O)Cc1ccccc1Nc1c(Cl)cccc1Cl` ?
Key: 0 (no)

Exercise: Recorded test call requested for `CCc1c(C(=O)NN2CCCCC2)nn(-c2ccc(Cl)cc2Cl)c1-c1ccc(Br)cc1`
Key: 0 (no)

Exercise: Write down the call the test reported for this compound. Item: `Nc1ccccc1N`
Key: 0 (no)

Exercise: Any idea what this test logged for `CN[C@H]1CC[C@@H](c2ccc(Cl)c(Cl)c2)c2ccc(S(N)(=O)=O)cc21` ?
Key: 0 (no)

Exercise: Answer briefly: the call reported for `COc1ccc(S(=O)(=O)N2C(=O)[C@@](c3ccccc3OC)(N3C[C@H](O)C[C@H]3C(=O)N(C)C)c3cc(Cl)ccc32)c(OC)c1` in this assay.
Key: 0 (no)
